- protocolText: melting temperature; fluorescence melt of hairpins on a sequencing array, two-state fit, raised by 9.35 °C to match UV melts
- settings: sodium 0.088 M
Rule: measured Tm below 50 °C gets true (1); anything equal to or greater than 50 °C gets false (0).

Prompt: Item GCGGTTGGAAACAATCGC (((.(((....))).))) : Tm beneath 50 °C, strictly?
Response: false (0)

Prompt: Query GCGGACACCGC ((((...)))) next
Response: false (0)

Prompt: Then this sequence: GATCAGTGCTCTGATC ((((((....))))))
Response: false (0)

Prompt: Entry GATCGGACGTCCGATC ((((((....)))))) please
Response: false (0)

Prompt: What do you have for TGGAAGAAATTCCA (((((....))))) ?
Response: true (1)

---

- protocolText: folding enthalpy; higher = less favourable; fluorescence melt of hairpins on a sequencing array, two-state fit
- settings: sodium 0.088 M
Each entry gets NOT MET if its folding enthalpy stays under -30 kcal/mol, and MET if its folding enthalpy is -30 kcal/mol or above.

Prompt: State whether the measured folding enthalpy reaches -30 kcal/mol, counting equality as reaching it, for GACAACGAAAGTTTGGTC ((((((....)))..)))
Response: MET

Prompt: Moving on to GTCGCACGAAAGTGGGAC (((.(((....))).)))
Response: NOT MET

Prompt: Next sequence: GCAGCATCGAAAGATTGC (((..(((....))))))
Response: MET

Prompt: // same read-out, input: GCCAAGCGAAAGCTAGGC (((.(((....))).)))
Response: NOT MET

Prompt: Same lookup for GGTTCCACGAAAGTGACC (((..(((....)))))) , please.
Response: MET

Prompt: Param item: GGCGCTCCGAAAGGAGCC (((..(((....))))))
Response: MET

Prompt: Moving on to the next sequence: GATCGTGCTCACGATC ((((((....))))))
Response: NOT MET

Prompt: What do we get for GCTAAACCGAAAGGTAGC (((..(((....)))))) ?
Response: MET

Prompt: Follow-up entry: GATCCCCGACGGGATC ((((((....))))))
Response: MET

Prompt: Could you do the same for GTTAAAGGAAACTTTGAC ((.((((....)))).)) , please?
Response: MET

Prompt: // same read-out, input: GTAACAGCGAAAGCTTAC (((..(((....))))))
Response: MET

Prompt: Field entry: GCCCCACCGAAAGGTGGC (((..(((....))))))
Response: MET

Prompt: Consider next the sequence GTTAGCCGAAAGGCAAC (((.(((....)))))) in the same way.
Response: MET

Prompt: And the next one, GAAGGCGGAAACGCTTTC (((.(((....))).))) ?
Response: MET

Prompt: Now consider GGGATTGGAAACAATCTC (.(((((....))))).) .
Response: MET

Prompt: Another sequence to check: CCTAGGAAACTAGG (((((....)))))
Response: MET

Prompt: Would you kindly repeat that for GTTTTCCGAAAGGACAAC (((.(((....))).))) ?
Response: MET

Prompt: And what about the sequence GATGAGGAAACTCATC ((((((....)))))) ?
Response: NOT MET

Prompt: Please give the result for GATCACTGAGTGATC ((((((...)))))) too.
Response: NOT MET

Prompt: Now the same for GGGGTTACGAAAGTACCC (((..(((....))))))
Response: MET

Prompt: And then GCATAACGAAAGTTGTGC (((.(((....))).))) , what is it?
Response: NOT MET

Prompt: And what about the sequence GCCTAGGGAAACTTAGGC (((((.(....).))))) ?
Response: NOT MET

Prompt: Could you do the same for GAACACGAAAGTGGCTTC ((((((....)))..))) , please?
Response: MET

---

- protocolText: melting temperature; fluorescence melt of hairpins on a sequencing array, two-state fit, raised by 9.35 °C to match UV melts
- settings: sodium 0.088 M
Mark rule met for Tm under 50 °C, rule not met if at or over.

Prompt: Field: below-cutoff. Rule: recorded Tm strictly less than 50 °C. Subject: GATCCCCTCTGGGATC ((((((....))))))
Response: rule not met

Prompt: Next: GGATTTTCGAAAGAATCC (((..(((....))))))
Response: rule met

Prompt: Next record, please: GATCGGGGGACCGATC ((((((....))))))
Response: rule not met

Prompt: Try this sequence next: GCACAGGGAAACCTGTGC (((((((....)))))))
Response: rule not met

Prompt: Try this sequence too: GCTATCGAAAGATTAAGC ((((((....)))..)))
Response: rule met

Prompt: Can you check GTGCCGGGAAACCGACAC (((.(((....))).))) next?
Response: rule not met

---

- protocolText: melting temperature; fluorescence melt of hairpins on a sequencing array, two-state fit, raised by 9.35 °C to match UV melts
- settings: sodium 0.088 M
experimentalReadout: Tm (°C)
I only need the number, in °C, no unit after it.

Prompt: // query Tm value for entry GCAGACTCGAAAGAGTGC (((..(((....))))))
Response: 43.4

Prompt: Okay, and GATCCATGTGTGGATC ((((((....)))))) ?
Response: 56.5

Prompt: Same again, this time with GCGTTGCGAAAGCGCCGC (((..((....))..)))
Response: 58.4

Prompt: Also, GTGTGCGAAAGCATACAC ((((((....)))..))) please.
Response: 53.1

Prompt: Follow-up entry: GTCATTACGAAAGTAGAC (((..(((....))))))
Response: 26.7

Prompt: Please do the same for GATCACCGAAGTGATC ((((((....)))))) as well.
Response: 55.8

Prompt: Now the sequence GGTCAAGGAAACTTGACC (((((((....)))))))
Response: 63.5

Prompt: Continue with GAGAAACGAAAGTTCTC (((.(((....))))))
Response: 40.9

Prompt: What do you get for GGCTAGGGAAACTTGGCC (((.(.(....).).))) ?
Response: 40.6

Prompt: Also check GATCTTGTCAAGATC ((((((...))))))
Response: 47.4

Prompt: GATCGGCGCCCCGATC ((((((....)))))) ?
Response: 56.8

Prompt: What do we get for GGCCCAGGAAACCGAGCC (((.(.(....).).))) ?
Response: 36.9

---

- protocolText: folding enthalpy; higher = less favourable; fluorescence melt of hairpins on a sequencing array, two-state fit
- settings: sodium 0.088 M
Give true when the value for folding enthalpy is at least -20 kcal/mol. Give false when it is less.

Prompt: Exam item: decide whether the reported folding enthalpy for GATCATTGCTATGATC ((((((....)))))) is at least -20 kcal/mol.
Response: false

Prompt: Next up: GTCAACGAAAGTTCTGAC ((((((....)))..)))
Response: true

Prompt: Same question for GCGAACGAAAGTTGCGC ((((((....))).))) please.
Response: false

Prompt: Continue with GGTCCCGAAAGGGCAACC ((((((....)))..)))
Response: true

Prompt: Also, GTGACAGGAAACTATCAC ((((.((....)).)))) please.
Response: true

Prompt: For GATGCACGAAAGTGAATC (((.(((....))).))) then?
Response: false

Prompt: Can you check GATCTACCCCTAGATC ((((((....)))))) next?
Response: false

Prompt: Also need CGAGCCGGAAACGGATCG (((.(((....))).))) , thanks.
Response: false

Prompt: Moving on to GTCTTTGGAAACAAAGAC (((((((....)))))))
Response: false

Prompt: Repeat for the following sequence: GCATGCGAAAGCATGTGC ((((((....)))..)))
Response: true

Prompt: Item: GGAATCTCGAAAGAGTCC (((..(((....))))))
Response: true

Prompt: Can you handle GGGCATGGAAACATACCC (((.(((....))).))) next?
Response: false

Prompt: Cool, now GTGGGAGGAAACTCCCAC (((((((....)))))))
Response: false

Prompt: Try this sequence next: GAGAAAGCGAAAGCTCTC (((..(((....))))))
Response: true

Prompt: Next sequence up: GGCTGCGAAAGCAATGCC ((((((....)))..)))
Response: false

Prompt: Another sequence to look at: GCCCCCACGAAAGTGGGC (((..(((....))))))
Response: true

Prompt: Now the sequence GCCAGGGGAAACCCTGAC (.(((((....))))).)
Response: true
